- MEASUREMENT PARAMETERS: buffer; pH 7.4; 200.0 µM
METRIC: solubility kinetic (µg/mL)

{"MOLECULE": "Cc1nc(C2COc3ccccc3O2)sc1C(=O)O (stereo not given)", "METRIC": "solubility kinetic", "UNIT SYMBOL": "µg/mL", "LIMIT SIGN": "=", "OBSERVED": 35}
{"MOLECULE": "O=C(O)c1ccccc1CSc1ncccc1C(=O)O", "METRIC": "solubility kinetic", "UNIT SYMBOL": "µg/mL", "LIMIT SIGN": ">", "OBSERVED": 43.4}
{"MOLECULE": "O=C1CN(c2ccccc2)C(=O)N1", "METRIC": "solubility kinetic", "UNIT SYMBOL": "µg/mL", "LIMIT SIGN": ">", "OBSERVED": 26.4}
{"MOLECULE": "O=C(c1ccccc1O)N1CCOCC1", "METRIC": "solubility kinetic", "UNIT SYMBOL": "µg/mL", "LIMIT SIGN": "=", "OBSERVED": 30.5}
{"MOLECULE": "CCOc1ccc(NC(=S)c2ccc3ccccc3n2)cc1", "METRIC": "solubility kinetic", "UNIT SYMBOL": "µg/mL", "LIMIT SIGN": "<", "OBSERVED": 0.3}
{"MOLECULE": "CCCC(C)NC(=O)CSc1nnc2ccccn12 (stereo not given)", "METRIC": "solubility kinetic", "UNIT SYMBOL": "µg/mL", "LIMIT SIGN": ">", "OBSERVED": 41.8}
{"MOLECULE": "CCCCCCCc1c(O)nc(SCCN(C)C)[nH]c1=O.Cl", "METRIC": "solubility kinetic", "UNIT SYMBOL": "µg/mL", "LIMIT SIGN": ">", "OBSERVED": 52.5}
{"MOLECULE": "Cc1ccc2nc(SCC(=O)Nc3c(F)cccc3F)[nH]c2c1", "METRIC": "solubility kinetic", "UNIT SYMBOL": "µg/mL", "LIMIT SIGN": "=", "OBSERVED": 43.4}
{"MOLECULE": "CC1(C)Cc2c(c(N3CCCC3)nc3sc4c(N5CCNCC5)ncnc4c23)CO1", "METRIC": "solubility kinetic", "UNIT SYMBOL": "µg/mL", "LIMIT SIGN": "=", "OBSERVED": 28.6}
{"MOLECULE": "CC(Sc1ccccc1F)C(=O)Nc1ccc2c(c1)OCCO2 (stereo not given)", "METRIC": "solubility kinetic", "UNIT SYMBOL": "µg/mL", "LIMIT SIGN": ">", "OBSERVED": 50}
{"MOLECULE": "O=C1Nc2ccccc2C(c2ccccc2)=NC1O (stereo not given)", "METRIC": "solubility kinetic", "UNIT SYMBOL": "µg/mL", "LIMIT SIGN": ">", "OBSERVED": 37.8}
{"MOLECULE": "C=CCn1cnc2c(oc3ccccc32)c1=O", "METRIC": "solubility kinetic", "UNIT SYMBOL": "µg/mL", "LIMIT SIGN": ">", "OBSERVED": 33.9}
{"MOLECULE": "O=C(NC(=S)Nc1cccc2c(O)cccc12)c1ccco1", "METRIC": "solubility kinetic", "UNIT SYMBOL": "µg/mL", "LIMIT SIGN": "=", "OBSERVED": 9.3}
{"MOLECULE": "Cc1ccccc1OC(=O)c1cccnc1", "METRIC": "solubility kinetic", "UNIT SYMBOL": "µg/mL", "LIMIT SIGN": "=", "OBSERVED": 28.4}
{"MOLECULE": "CC(C)N1C(=O)CCC1C(=O)NCc1cccs1 (stereo not given)", "METRIC": "solubility kinetic", "UNIT SYMBOL": "µg/mL", "LIMIT SIGN": ">", "OBSERVED": 40}
{"MOLECULE": "COc1cc2ccccc2cc1C(=O)Nc1ccncc1", "METRIC": "solubility kinetic", "UNIT SYMBOL": "µg/mL", "LIMIT SIGN": "=", "OBSERVED": 38.6}
{"MOLECULE": "CCOc1ccccc1NC(=O)C1CCN(S(C)(=O)=O)CC1", "METRIC": "solubility kinetic", "UNIT SYMBOL": "µg/mL", "LIMIT SIGN": ">", "OBSERVED": 49}
{"MOLECULE": "CN1C(=O)Cc2cc(S(=O)(=O)NCc3cccs3)ccc21", "METRIC": "solubility kinetic", "UNIT SYMBOL": "µg/mL", "LIMIT SIGN": ">", "OBSERVED": 48.4}
{"MOLECULE": "O=C(COC(=O)CCSc1ccc(F)cc1)NCc1ccc(F)cc1", "METRIC": "solubility kinetic", "UNIT SYMBOL": "µg/mL", "LIMIT SIGN": "=", "OBSERVED": 26.5}
{"MOLECULE": "CCCN1C(=O)CC(Sc2ncccc2C(=O)O)C1=O (stereo not given)", "METRIC": "solubility kinetic", "UNIT SYMBOL": "µg/mL", "LIMIT SIGN": "=", "OBSERVED": 42.5}
{"MOLECULE": "Cc1cccc(OCCCn2c(CO)nc3ccccc32)c1", "METRIC": "solubility kinetic", "UNIT SYMBOL": "µg/mL", "LIMIT SIGN": ">", "OBSERVED": 44.5}
{"MOLECULE": "CC(C)CC(=O)Nc1cccc(-c2nc3ncccc3o2)c1", "METRIC": "solubility kinetic", "UNIT SYMBOL": "µg/mL", "LIMIT SIGN": "=", "OBSERVED": 31.8}
{"MOLECULE": "CSc1ccccc1NC(=O)COC(=O)Cc1ccsc1", "METRIC": "solubility kinetic", "UNIT SYMBOL": "µg/mL", "LIMIT SIGN": ">", "OBSERVED": 48.2}
{"MOLECULE": "C=CCNC(=S)NC(=O)c1csc([N+](=O)[O-])c1", "METRIC": "solubility kinetic", "UNIT SYMBOL": "µg/mL", "LIMIT SIGN": "=", "OBSERVED": 38.5}
{"MOLECULE": "CCC(C)[C@H](NC(=O)Nc1ccc(S(N)(=O)=O)cc1)C(=O)OC (stereo not given in full)", "METRIC": "solubility kinetic", "UNIT SYMBOL": "µg/mL", "LIMIT SIGN": ">", "OBSERVED": 51.5}
{"MOLECULE": "CC(C)C(CCNCc1ccccn1)c1ccc(Cl)cc1 (stereo not given)", "METRIC": "solubility kinetic", "UNIT SYMBOL": "µg/mL", "LIMIT SIGN": "=", "OBSERVED": 24.8}
{"MOLECULE": "COc1ccccc1N1CN(Cc2ccccc2)CNC1=S", "METRIC": "solubility kinetic", "UNIT SYMBOL": "µg/mL", "LIMIT SIGN": ">", "OBSERVED": 47}
{"MOLECULE": "O=C(NC1CCNCC1)C1CC1", "METRIC": "solubility kinetic", "UNIT SYMBOL": "µg/mL", "LIMIT SIGN": ">", "OBSERVED": 25.2}
{"MOLECULE": "CC(C(=O)Nc1ccccc1)N1C(=O)c2ccccc2C1=O (stereo not given)", "METRIC": "solubility kinetic", "UNIT SYMBOL": "µg/mL", "LIMIT SIGN": ">", "OBSERVED": 44.1}
{"MOLECULE": "CCOC(=O)C1CCCN(C(=S)NC2CCCCC2)C1 (stereo not given)", "METRIC": "solubility kinetic", "UNIT SYMBOL": "µg/mL", "LIMIT SIGN": ">", "OBSERVED": 44.8}
{"MOLECULE": "CC(=O)Oc1ccc(-c2nc3c(C)cccc3c(=O)o2)cc1", "METRIC": "solubility kinetic", "UNIT SYMBOL": "µg/mL", "LIMIT SIGN": "=", "OBSERVED": 2.9}
{"MOLECULE": "CC(C(=O)O)c1ccc(N2Cc3ccccc3C2=O)cc1 (stereo not given)", "METRIC": "solubility kinetic", "UNIT SYMBOL": "µg/mL", "LIMIT SIGN": ">", "OBSERVED": 42.2}
{"MOLECULE": "O=c1nccc(N/N=C/c2cccc(O)c2)[nH]1", "METRIC": "solubility kinetic", "UNIT SYMBOL": "µg/mL", "LIMIT SIGN": ">", "OBSERVED": 34.5}
{"MOLECULE": "CS(=O)(=O)N1CCC(C(=O)NCc2ccc3c(c2)OCO3)CC1", "METRIC": "solubility kinetic", "UNIT SYMBOL": "µg/mL", "LIMIT SIGN": ">", "OBSERVED": 51.1}
{"MOLECULE": "COc1cc(/C=C/C(=O)O)cc(S(=O)(=O)N2CCCc3ccccc32)c1OC", "METRIC": "solubility kinetic", "UNIT SYMBOL": "µg/mL", "LIMIT SIGN": "=", "OBSERVED": 45.3}
{"MOLECULE": "CCc1nnc(NC(=O)CN2CC(C)OC(C)C2)s1 (stereo not given)", "METRIC": "solubility kinetic", "UNIT SYMBOL": "µg/mL", "LIMIT SIGN": ">", "OBSERVED": 42.7}
{"MOLECULE": "O=C(O)c1cccc(-n2c(/C=C/c3ccccc3)nc3ccccc3c2=O)c1", "METRIC": "solubility kinetic", "UNIT SYMBOL": "µg/mL", "LIMIT SIGN": ">", "OBSERVED": 55.3}
{"MOLECULE": "Cc1cnc(C(=O)OCC(=O)c2ccc(C)s2)cn1", "METRIC": "solubility kinetic", "UNIT SYMBOL": "µg/mL", "LIMIT SIGN": "=", "OBSERVED": 41.1}
{"MOLECULE": "O=C(CCN1C(=O)c2ccccc2S1(=O)=O)Nc1ccc(Cl)cc1", "METRIC": "solubility kinetic", "UNIT SYMBOL": "µg/mL", "LIMIT SIGN": "=", "OBSERVED": 0.9}
{"MOLECULE": "O=[N+]([O-])c1cc(C(F)(F)F)cc([N+](=O)[O-])c1N1CCCNCC1", "METRIC": "solubility kinetic", "UNIT SYMBOL": "µg/mL", "LIMIT SIGN": "=", "OBSERVED": 37.9}
{"MOLECULE": "COCCNC(=O)C(=O)Nc1cc2c3c(c1)CC(=O)N3CCC2", "METRIC": "solubility kinetic", "UNIT SYMBOL": "µg/mL", "LIMIT SIGN": "=", "OBSERVED": 42.3}
{"MOLECULE": "C=CCn1c(SCC#N)nc2sc(CC)cc2c1=O", "METRIC": "solubility kinetic", "UNIT SYMBOL": "µg/mL", "LIMIT SIGN": "=", "OBSERVED": 7}
{"MOLECULE": "CC1(C)CC(=O)C(N=Nc2cccc([N+](=O)[O-])c2)=C(O)C1", "METRIC": "solubility kinetic", "UNIT SYMBOL": "µg/mL", "LIMIT SIGN": ">", "OBSERVED": 43.4}
{"MOLECULE": "Nc1ccccc1C(=O)NCCCN1CCN(c2cccc(Cl)c2)CC1", "METRIC": "solubility kinetic", "UNIT SYMBOL": "µg/mL", "LIMIT SIGN": "=", "OBSERVED": 12.9}
{"MOLECULE": "N#C/C(=C\\c1cc([N+](=O)[O-])ccc1Cl)C(N)=O", "METRIC": "solubility kinetic", "UNIT SYMBOL": "µg/mL", "LIMIT SIGN": "=", "OBSERVED": 33.5}
{"MOLECULE": "COc1ccc(C(=O)OCC(=O)NCc2cccs2)c(OC)c1OC", "METRIC": "solubility kinetic", "UNIT SYMBOL": "µg/mL", "LIMIT SIGN": ">", "OBSERVED": 54.8}
{"MOLECULE": "O=S(=O)(NCCc1c[nH]c2ccccc12)c1ccccc1", "METRIC": "solubility kinetic", "UNIT SYMBOL": "µg/mL", "LIMIT SIGN": ">", "OBSERVED": 45.1}
{"MOLECULE": "CCCC(=O)OCC(=O)Nc1ccc2c(c1)OCO2", "METRIC": "solubility kinetic", "UNIT SYMBOL": "µg/mL", "LIMIT SIGN": "=", "OBSERVED": 37.2}
{"MOLECULE": "Cc1ccccc1NC(=O)C1COc2ccccc2O1 (stereo not given)", "METRIC": "solubility kinetic", "UNIT SYMBOL": "µg/mL", "LIMIT SIGN": "=", "OBSERVED": 32.6}
{"MOLECULE": "CCOc1ccc(NS(=O)(=O)c2cc(C)c(C)cc2C)cc1", "METRIC": "solubility kinetic", "UNIT SYMBOL": "µg/mL", "LIMIT SIGN": "=", "OBSERVED": 10.2}
